The values you see were collected from paper PMC9774241.

Examples of molecules with documented MIC, E. coli ATCC 25922 follow.
system: Escherichia coli ATCC 25922; format: cell-based; settings: broth microdilution in MHB, peptide 128 down to 0.5 µg/mL, 20–24 h at 37 °C, no visible growth; range of three independent experiments
Residues, ends and D or L forms follow the SMILES beside them.
METRIC: MIC, E. coli ATCC 25922

MOLECULE	VALUE
CC[C@H](C)[C@H](NC(=O)CNC(=O)[C@H](CO)NC(=O)[C@H](CC(C)C)NC(=O)[C@H](CC(C)C)NC(=O)CN)C(=O)N[C@@H](CC(C)C)C(=O)NCC(=O)N[C@@H](C)C(=O)NCC(=O)N[C@@H](CCCCN)C(=O)N[C@@H](CCCCN)C(=O)N[C@H](C(=O)N[C@H](C(=O)N[C@@H](CS)C(=O)NCC(=O)N[C@@H](Cc1ccccc1)C(=O)N[C@@H](CO)C(=O)NCC(=O)N[C@@H](CC(C)C)C(=O)N[C@@H](CS)C(=O)O)C(C)C)[C@@H](C)CC [OdMa1] (H-GLLSGILGAGKKIVCGFSGLC-OH; N-terminus and C-terminus assumed)	8 to 16 µg/mL
CC[C@H](C)[C@H](NC(=O)CNC(=O)[C@H](CCCNC(=N)N)NC(=O)[C@H](CC(C)C)NC(=O)[C@H](CC(C)C)NC(=O)CN)C(=O)N[C@@H](CC(C)C)C(=O)NCC(=O)N[C@@H](C)C(=O)NCC(=O)N[C@@H](CCCCN)C(=O)N[C@@H](CCCCN)C(=O)N[C@H](C(=O)N[C@H](C(=O)N[C@@H](CS)C(=O)NCC(=O)N[C@@H](CC(C)C)C(=O)N[C@@H](CO)C(=O)NCC(=O)N[C@@H](CC(C)C)C(=O)N[C@@H](CS)C(=O)O)C(C)C)[C@@H](C)CC [OdMa2] (H-GLLRGILGAGKKIVCGLSGLC-OH)	4 µg/mL
CC(C)C[C@H](NC(=O)CNC(=O)[C@H](CO)NC(=O)[C@@H](NC(=O)[C@@H](NC(=O)[C@H](CS)NC(=O)[C@H](CC(C)C)NC(=O)[C@@H](NC(=O)[C@H](CCCCN)NC(=O)[C@H](CCCCN)NC(=O)CNC(=O)[C@@H](NC(=O)CNC(=O)[C@H](CC(C)C)NC(=O)[C@@H](NC(=O)[C@H](CCCCN)NC(=O)CNC(=O)[C@H](CC(C)C)NC(=O)[C@H](CC(C)C)NC(=O)CN)C(C)C)C(C)C)C(C)C)C(C)C)C(C)C)C(=O)N[C@@H](CS)C(=O)O [PeNi2] (H-GLLGKVLGVGKKVLCVVSGLC-OH; N-terminus and C-terminus assumed)	4 µg/mL
CC[C@H](C)[C@H](NC(=O)CN)C(=O)N[C@@H](CC(C)C)C(=O)N[C@@H](CO)C(=O)NCC(=O)N[C@@H](CC(C)C)C(=O)N[C@@H](CC(C)C)C(=O)NCC(=O)N[C@@H](C)C(=O)NCC(=O)N[C@@H](CCCCN)C(=O)N[C@@H](CCCCN)C(=O)N[C@@H](CC(C)C)C(=O)N[C@@H](C)C(=O)N[C@@H](CS)C(=O)NCC(=O)N[C@@H](CC(C)C)C(=O)N[C@H](C(=O)NCC(=O)N[C@@H](CC(C)C)C(=O)N[C@@H](CS)C(=O)O)[C@@H](C)CC [OdTo1] (H-GILSGLLGAGKKLACGLIGLC-OH; N-terminus and C-terminus assumed)	8 µg/mL
